B1: Storkhead-box protein 2, residues 64 to 141; numbered along this chain, Q9P2F5 (parent)
chain: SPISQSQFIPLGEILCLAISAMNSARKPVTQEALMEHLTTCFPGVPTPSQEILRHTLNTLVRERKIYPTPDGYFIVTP

# Variants of: B1
# method description: abundance fitness (aPCA) (normalised: wild type 0, dead -1); higher = more abundant; growth selection in yeast, the domain comes from the species named
# condition info: Homo sapiens
assay endpoint: abundance fitness
Write no unit; give the number alone.

Return abundance fitness for the following variant: Y67C 0.039

Return abundance fitness for the following variant: F8V -0.063

Return abundance fitness for the following variant: S49A -0.109

Return abundance fitness for the following variant: I9C 0.067

Return abundance fitness for the following variant: L11R -0.428

Return abundance fitness for the following variant: P43Y -0.109

Return abundance fitness for the following variant: Q7V -0.064

Return abundance fitness for the following variant: E32I -0.072

Return abundance fitness for the following variant: F42N 0.106

Return abundance fitness for the following variant: G44A -0.054

Return abundance fitness for the following variant: T69H -0.071
